The measured values listed here are drawn from patent US20240392024A1.

# target.entity: T1, recombinant mouse TNFR2 (mTNFR2) (Sino Biological, 50128-M08H) (mouse, UniProt P25119 23-258)
# T1 sequence (looked up): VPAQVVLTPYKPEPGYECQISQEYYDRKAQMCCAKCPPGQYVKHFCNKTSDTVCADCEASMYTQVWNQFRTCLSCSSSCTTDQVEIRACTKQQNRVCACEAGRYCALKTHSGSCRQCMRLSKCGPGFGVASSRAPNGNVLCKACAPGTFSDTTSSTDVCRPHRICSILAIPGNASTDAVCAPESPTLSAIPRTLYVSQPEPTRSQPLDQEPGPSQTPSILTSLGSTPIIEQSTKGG
# assay.overview: ELISA, coated mouse TNFR2
# Method: After TMB development, the detection was performed using microplate reader: dual wavelength 450 nm/655 nm detection, and results were calculated by OD₄₅₀-OD₆₅₅. Using the same method as above, the TNFR2 antigens of cynomolgus monkey and mouse (Sino Biological, 90102-C021 and 50128-M08H) were coated separately. […]
measured.metric: binding result

Worked examples follow.
[
  {
    "binder": "anti-human TNFR2 mouse monoclonal antibody 7F2 (antibody, V domains shown) VH: QVTLKESGPGILQPSQTLSLTCSFSGFSLNTFGLGVGWIRQPSGKGLEWLTHIWWNDDKYYNPALKSRLTISRDTSENLVFLKIANVDTADTATYYCARIEGLRRFDYWGQGTTLTVSS VL: DIQMTQSPSSLSASLGGKVTITCKTSQDINKFIAWYQHKPGKGPRLLIHYTSTLQPGIPSRFSGSGSGRDYSFSISDLEPEDIATYYCLQYANLWAFGGGTKLEIK",
    "binding result": "no binding"
  },
  {
    "binder": "anti-human TNFR2 mouse monoclonal antibody 29A1 (antibody, V domains shown) VH: QVQLQQSGAEVVRPGASVTLSCKASGYTFSDYEMHWVKQTPVHGLEWIGAIDPETGDTAYNQKFKDKARVTADKSSSTAYMELRSLTSEDSAVYYCTRDIHYYGSSLSYFDYWGQGTTLTVSS VL: DIVMTQSQKFMSTSVGDRVSVTCKASQNVGTNVAWYQQKPGQSPKVMIYSASYRYSGAPDRFTGSGSGTDFTLTVNNVQSEDLAEYFCQQYKTYPYTFGGGTKLEIE",
    "binding result": "no binding"
  },
  {
    "binder": "anti-human TNFR2 mouse monoclonal antibody 27F6 (antibody, V domains shown) VH: EVQLQQSGTVLARPGASVKMSCKTSGYTFTSYWMHWVKQRPGQGLEWIGTIYPGNSDTSYNQKFKGKAKLTAVTSASTAYMELNSLTNEDSAVFYCTRENLLLRSYFFDYWGQGTTLTVSS VL: DIVMTQSPASLAVSLGQRATISCKASQSVDYDGDSYLNWYQQKPGQPPKLLIYAASNLPSGIPARFSGSGSGTDFTLNIHPVEEEDAATYYCQQSNEDPRTFGGGTKLEIK",
    "binding result": "no binding"
  },
  {
    "binder": "anti-human TNFR2 mouse monoclonal antibody 13F5 (antibody, V domains shown) VH: QVQLQQSGAELVRPGTSVKMSCKASGYTFTNYWIGWTKQRPGHGLEWIGDIFPGGDFTNYNEKFKGKATLTADKSSSTAYLQFSSLTSEDSAIYYCSRRRFTTIVAPGFDYWGQGTTLTVSS VL: QLVLTQSSSASFSLGASAKLTCTLSSQHSMYTIEWYQQQPLKPPKFVMELKKDGSHSTGDGIPDRFSGSSSGADRYLNISNIQPEDEAIYICGVGDTIKEQFVYVFGGGTEVTVL",
    "binding result": "no binding"
  }
]

Field: next binder
Item under review: anti-human TNFR2 mouse monoclonal antibody 12E12 (antibody, V domains shown) VH: EVQLQQSGAELVKPGASVKLSCTVSGFNIKDFYIHWVKQRPEQGLEWIGRVDPEDGNTEYAPNFQDRATMTTDTSSNTAYLQLSSLTSVDTAVYYCSTWDGFSYFDYWGLGTTLTVSS VL: QAVVTQESALTTSPGETVTLTCRSSTGPVTTNNYANWVQEKPDHLFTGLIGGTNDRAPGVPARFSGSLIGDKTALTITGTQTEDEAVYFCALWYRNHWVFGGGTKLTVL . Reported binding result?
no binding
